- Target or system: α4β1 integrin (Jurkat cell adhesion to immobilized CS-1 derived peptide CLHPGEILDVPST) (Homo sapiens, UniProt P05556+P13612)
- Construct: 100 μl of Jurkat cells (2.5×10^6 cells/ml) in DMEM plus BSA; endogenous in cells
- Sequence (P13612 34-1032): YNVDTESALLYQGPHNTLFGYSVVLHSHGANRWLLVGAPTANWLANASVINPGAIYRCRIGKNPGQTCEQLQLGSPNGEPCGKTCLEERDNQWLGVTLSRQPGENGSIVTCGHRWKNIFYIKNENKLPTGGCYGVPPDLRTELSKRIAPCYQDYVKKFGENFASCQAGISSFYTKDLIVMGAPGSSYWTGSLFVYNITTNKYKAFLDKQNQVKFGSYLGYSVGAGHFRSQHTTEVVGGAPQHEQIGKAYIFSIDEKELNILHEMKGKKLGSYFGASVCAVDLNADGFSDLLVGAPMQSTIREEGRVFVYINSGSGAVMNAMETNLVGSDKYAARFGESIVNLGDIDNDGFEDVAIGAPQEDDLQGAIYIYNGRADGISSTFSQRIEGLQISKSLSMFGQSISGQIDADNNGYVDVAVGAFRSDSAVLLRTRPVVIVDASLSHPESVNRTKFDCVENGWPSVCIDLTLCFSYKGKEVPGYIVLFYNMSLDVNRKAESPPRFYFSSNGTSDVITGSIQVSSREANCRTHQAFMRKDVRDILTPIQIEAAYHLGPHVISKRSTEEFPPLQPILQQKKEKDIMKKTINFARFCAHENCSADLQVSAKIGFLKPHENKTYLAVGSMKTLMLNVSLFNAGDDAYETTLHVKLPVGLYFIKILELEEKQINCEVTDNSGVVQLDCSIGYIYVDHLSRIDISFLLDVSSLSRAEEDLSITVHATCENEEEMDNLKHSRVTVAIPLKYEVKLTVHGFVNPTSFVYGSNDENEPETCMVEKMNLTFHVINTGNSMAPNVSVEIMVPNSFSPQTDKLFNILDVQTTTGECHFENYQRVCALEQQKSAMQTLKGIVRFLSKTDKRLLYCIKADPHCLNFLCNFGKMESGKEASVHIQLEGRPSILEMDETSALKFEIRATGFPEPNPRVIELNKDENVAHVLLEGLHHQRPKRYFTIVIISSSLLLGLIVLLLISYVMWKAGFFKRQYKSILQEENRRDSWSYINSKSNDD
- Sequence (P05556 21-798): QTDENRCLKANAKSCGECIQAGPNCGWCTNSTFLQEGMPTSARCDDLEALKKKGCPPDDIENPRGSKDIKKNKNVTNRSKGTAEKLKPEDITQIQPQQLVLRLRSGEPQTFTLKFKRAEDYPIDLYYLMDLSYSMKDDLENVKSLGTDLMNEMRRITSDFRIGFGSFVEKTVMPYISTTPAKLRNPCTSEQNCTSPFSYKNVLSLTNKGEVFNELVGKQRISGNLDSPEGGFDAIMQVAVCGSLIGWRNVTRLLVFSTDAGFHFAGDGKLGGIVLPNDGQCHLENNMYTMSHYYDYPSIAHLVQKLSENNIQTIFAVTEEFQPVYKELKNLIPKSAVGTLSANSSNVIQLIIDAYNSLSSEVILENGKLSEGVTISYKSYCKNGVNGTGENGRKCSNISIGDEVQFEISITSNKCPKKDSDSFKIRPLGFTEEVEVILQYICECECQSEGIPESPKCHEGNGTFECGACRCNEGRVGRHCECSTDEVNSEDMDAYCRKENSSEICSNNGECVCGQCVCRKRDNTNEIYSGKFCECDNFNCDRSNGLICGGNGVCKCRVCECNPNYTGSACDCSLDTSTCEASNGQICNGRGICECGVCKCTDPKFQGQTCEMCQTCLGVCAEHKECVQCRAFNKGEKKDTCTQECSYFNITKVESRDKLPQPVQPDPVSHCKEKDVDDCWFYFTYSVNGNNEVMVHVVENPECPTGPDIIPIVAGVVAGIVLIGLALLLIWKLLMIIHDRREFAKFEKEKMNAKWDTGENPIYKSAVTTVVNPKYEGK
- Assay summary: Jurkat-CS-1 Assay
- Condition notes: Jurkat cells on CS-1 peptide coated plates
pIC50: −log10 of the molar value.
Attribute: pIC50

Guide cases for pIC50, answers given:
>  <Molecule>
CC1(C)[C@@H](C(=O)N[C@@H](Cc2ccc(NC(=O)c3ccccc3Cl)cc2)C(=O)O)CC[C@@]1(C)C(=O)O [Example 120]

>  <Obs value>
6.30 to 7.10

$$$$
>  <Molecule>
CC1(C)[C@@H](C(=O)N[C@@H](Cc2ccc(NC(=O)c3cc(C(F)(F)F)ccc3Cl)cc2)C(=O)O)CC[C@@]1(C)C(=O)O [Example 232]

>  <Obs value>
≥ 7.10

$$$$

Next molecule, please.
Query :: For CC1(C)[C@@H](C(=O)N[C@@H](Cc2ccc(NC(=O)c3ccccc3I)cc2)C(=O)O)CC[C@@]1(C)C(=O)O [Example 110] , what is its reported pIC50?
Result :: ≥ 7.10

----------
- Target or system: α4β1 integrin (Jurkat cell adhesion to immobilized CS-1 derived peptide CLHPGEILDVPST) (Homo sapiens, UniProt P05556+P13612)
- Construct: 100 μl of Jurkat cells (2.5×10^6 cells/ml) in DMEM plus BSA; endogenous in cells
- Assay summary: Jurkat-CS-1 Assay
- Condition notes: Jurkat cells on CS-1 peptide coated plates
pIC50: −log10 of the molar value.
# maps each entry to its pIC50

>  <Molecule>
CC1(C)[C@@H](C(=O)N[C@@H](Cc2ccc(NC(=O)c3cccc4c3Cc3ccccc3-4)cc2)C(=O)O)CC[C@@]1(C)C(=O)O [Example 136]

>  <pIC50>
6.00 to 6.30

$$$$
>  <Molecule>
CC1(C)[C@@H](C(=O)N[C@@H](Cc2ccc(NC(=O)c3ccc(Cl)cc3)cc2)C(=O)O)CC[C@@]1(C)C(=O)O [Example 128]

>  <pIC50>
6.30 to 7.10

$$$$
>  <Molecule>
CC1(C)[C@@H](C(=O)N[C@@H](Cc2ccc(OCc3c(Cl)cccc3Cl)c(Cl)n2)C(=O)O)CC[C@@]1(C)C(=O)O (relative stereo) [Example 194]

>  <pIC50>
6.30 to 7.10

$$$$
>  <Molecule>
CC1(C)[C@@H](C(=O)N[C@@H](Cc2cn(Cc3c(Cl)cccc3Cl)cn2)C(=O)O)CC[C@@]1(C)C(=O)O [Example 26]

>  <pIC50>
6.00 to 6.30

$$$$
>  <Molecule>
CC1(C)[C@@H](C(=O)N[C@@H](Cc2ccc(OCc3c(Cl)cccc3Cl)cc2)C(=O)O)CC[C@@]1(C)C(=O)O (relative stereo) [Example 12]

>  <pIC50>
≥ 7.10

$$$$

Query :: // query pIC50 value for entry CONC(=O)[C@]1(C)CC[C@H](C(=O)N[C@@H](Cc2ccc(OCc3c(Cl)cccc3Cl)cc2)C(=O)O)C1(C)C [Example 163]
Result :: 6.00 to 6.30

----------
- Target or system: α4β1 integrin (Jurkat T-cell adhesion to IL-1 stimulated endothelial cell monolayers) (Homo sapiens, UniProt P05556+P13612)
- Construct: a T-cell line, Jurkat, known to express the α4β1 integrin
- Sequence (P13612 34-1032): as the sequence (P13612 34-1032) above
- Sequence (P05556 21-798): as the sequence (P05556 21-798) above
- Assay summary: Jurkat-Endothelial Cell Adhesion Assay (Jurkat EC)
- Condition notes: Jurkat cells on IL-1 stimulated HUVEC monolayers
pIC50: −log10 of the molar value. Where a name gives a salt, the structure may show the parent alone.
Listed here are molecules together with their documented pIC50.

Examples with their reported pIC50 follow.
>  <Molecule>
CC1(C)[C@@H](C(=O)N[C@@H](Cc2ccc(NC(=O)c3c(Cl)cccc3Cl)cc2)C(=O)O)CC[C@@]1(C)/C=C/C(=O)O [Example 182, disodium salt]

>  <pIC50>
≥ 6.10

$$$$
>  <Molecule>
CC1(C)[C@@H](C(=O)N[C@@H](Cc2ccc(NC(=O)c3ccccc3Cl)cc2)C(=O)O)CC[C@@]1(C)C(=O)O [Example 120]

>  <pIC50>
5.30 to 6.10

$$$$
>  <Molecule>
CC1(C)[C@@H](C(=O)N[C@@H](Cc2ccc(NC(=O)c3ccc(-c4ccccc4)cc3)cc2)C(=O)O)CC[C@@]1(C)C(=O)O [Example 116]

>  <pIC50>
≥ 6.10

$$$$

Query :: Tell me the measured pIC50 of CC1(C)[C@@H](C(=O)N[C@@H](Cc2ccc(OCc3c(Cl)cccc3Cl)cc2)C(=O)O)CC[C@@]1(C)C(N)=O [Example 155] , please.
Result :: 5.00 to 5.30

Query :: Requested field: pIC50. Item: CC1(C)[C@@H](C(=O)N[C@@H](Cc2ccc(NC(=O)c3c(Cl)cccc3Cl)cc2)C(=O)O)CC[C@@]1(C)C(=O)N1CCC[C@H]1C(N)=O (relative stereo) [Example 213, monosodium salt]
Result :: 5.30 to 6.10

Query :: I am curious: what pIC50 value has been reported for COC(=O)[C@H](Cc1ccc(NC(=O)c2c(Cl)cc(Cl)cc2Cl)cc1)NC(=O)[C@H]1CC[C@@](C)(C(=O)O)C1(C)C [Example 92] ?
Result :: ≥ 6.10

Data origin, for the record: patent US6482849B1
